# target_desc: human 5-HT1A receptor (Homo sapiens)
# Construct: purchased Packard Bioscience; host or cells: CHO cells (membrane preparation)
# Sequence (P08908 whole entry): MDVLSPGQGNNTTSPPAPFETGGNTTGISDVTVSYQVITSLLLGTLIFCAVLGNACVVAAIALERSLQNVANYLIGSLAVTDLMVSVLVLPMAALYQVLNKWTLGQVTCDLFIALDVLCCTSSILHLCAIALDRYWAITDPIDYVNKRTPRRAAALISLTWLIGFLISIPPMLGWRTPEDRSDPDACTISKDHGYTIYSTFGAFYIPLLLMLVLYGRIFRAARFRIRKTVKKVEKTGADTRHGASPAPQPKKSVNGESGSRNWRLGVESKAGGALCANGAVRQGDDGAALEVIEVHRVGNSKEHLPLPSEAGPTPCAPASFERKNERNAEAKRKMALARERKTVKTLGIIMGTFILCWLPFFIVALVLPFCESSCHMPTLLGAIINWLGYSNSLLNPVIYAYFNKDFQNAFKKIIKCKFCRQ
# test_protocol: Affinity measurement of the compounds to human 5-HT1A receptor (in vitro), [3H]8-OH-DPAT binding
# assay_context: test compound 100 nmols/L; [3H]8-OH-DPAT 0.25 nmols/L; CHO cell membrane expressing human 5-HT1A receptor; read-out: Percent Inhibition (%) on Each Receptor's Binding at 10^−7M, 5-HT1A
Reported inhibition at 0.1 µM maps to class as: small value (below 80%), mid value (80% to below 90%), large value (90% or more)

CCN1CCN(c2nccc3ccsc23)CC1 [Production Example 17]; mid value
CCn1c(CCCCN2CCN(c3nc4ccccc4s3)CC2)nc2c(c1=O)CCCC2 [Example 7-10]; small value
c1cc2ccoc2c(N2CCN3CCCCC3C2)n1 (stereo not drawn) [Production Example 118]; small value

Band for the recorded inhibition at 0.1 µM of CN1CCN(c2nccc3ccc(F)cc23)CC1 [Production Example 52] ? mid value

Queued: c1cnc2c(N3CCN4CCC[C@H]4C3)nccc2c1 [Production Example 74] large value

Queued: NN1Oc2c(sc3c2CCCCCC3)N=C1SCCCN1CCN(c2ccc3ccccc3n2)CC1 [Example 1-24] large value

Queued: c1cc2sccc2c(N2CCN3CCCCC3C2)n1 (stereo not drawn) [Production Example 121] small value
